test system: normal primary NK cells, pool 1 (3 donors), resting (IL-2 0 ng/mL); assay: percent inhibition of viability; higher = more inhibition; conditions: 72 h; 1000 nM;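 note: normalised to DMSO-only wells as negative and benzethonium chloride as positive control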
observed_property: percent inhibition of viability (%)
Numbers only, in %.

Examples with answers:
compound: C#Cc1cccc(Nc2ncnc3cc4c(cc23)OCCOCCOCCO4)c1 [Icotinib] (max concentration tested 10000 nM)
observed_property: percent inhibition of viability
unit_string: %
readout_number: -8.23
//
compound: CC1=C(/C=C/C(C)=C/C=C/C(C)=C/C(=O)O)C(C)(C)CCC1 [Tretinoin] (max concentration tested 10000 nM)
observed_property: percent inhibition of viability
unit_string: %
readout_number: 18.4

Q. Reported percent inhibition of viability, compound O=c1[nH]c(=O)n([C@H]2C[C@H](O)[C@@H](CO)O2)cc1F [Floxuridine] (max concentration tested 10000 nM) : ____
A. 8.19
